system: Aspergillus niger; test: Antifungal activity against Aspergillus niger after 18 hr by broth microdilution technique; format: functional
reportedMetric: MIC

Form: item c1ccc(-c2nnc(-c3ccc(-n4cccc4)cc3)o2)cc1 ; test system Aspergillus niger; MIC: 31.2 µg/mL

Response field MIC (Aspergillus niger) for item Cc1ccc(C)n1-c1ccc(C(=O)NN=C(c2ccccc2)c2ccccc2)cc1 : 62.5 µg/mL

Entry Cc1ccc(C)n1NC(=O)c1ccc(-n2c(C)ccc2C)cc1 , tested on Aspergillus niger, has a reported MIC of 16 µg/mL

Summary: O=C(NNC(=O)c1ccc(-n2cccc2)cc1)c1ccc(Br)cc1 , Aspergillus niger, MIC = 16 µg/mL

Reading of MIC for O=C(NNC(=O)c1cccc([N+](=O)[O-])c1)c1ccc(-n2cccc2)cc1 with Aspergillus niger: 31.2 µg/mL

Aspergillus niger MIC of Clc1ccc(-c2nnc(-c3ccc(-n4cccc4)cc3)o2)cc1 is 16 µg/mL

Field MIC (system: Aspergillus niger) for entry CC(=O)N1N=C(c2ccc(-n3c(C)ccc3C)cc2)OC1c1ccc(O)cc1 (configuration not stated) = 8 µg/mL

Tested on Aspergillus niger, the item CC(C)=NNC(=O)c1ccc(-n2c(C)ccc2C)cc1 showed MIC equal to 62.5 µg/mL

Record Cc1ccc(C)n1-c1ccc(C(=O)N/N=C/c2ccccc2[N+](=O)[O-])cc1 ; system Aspergillus niger; MIC = 16 µg/mL

Readout MIC for O=C(NNC(=O)c1ccccc1Br)c1ccc(-n2cccc2)cc1 , test system Aspergillus niger, was 16 µg/mL

Bench note, Aspergillus niger: Cc1ccc(C)n1-c1ccc(C(=O)N/N=C/c2ccccc2)cc1 , MIC reads 31.2 µg/mL

Measured on Aspergillus niger, O=C(NNC(=O)c1ccc(-n2cccc2)cc1)c1ccccc1 has a documented MIC of 31.2 µg/mL

The measured MIC that O=[N+]([O-])c1ccc(-c2nnc(-c3ccc(-n4cccc4)cc3)o2)cc1 showed for Aspergillus niger is 31.2 µg/mL

Kindly note: Aspergillus niger, Fc1ccc(-c2nnc(-c3ccc(-n4cccc4)cc3)o2)cc1C(F)(F)F , MIC value reported: 4 µg/mL

Value sought: MIC, system Aspergillus niger, item Cc1ccc(C)n1-c1ccc(C(=O)N/N=C/c2ccc(N(C)C)cc2)cc1 . Result: 31.2 µg/mL

// molecule Cc1ccc(C)n1-c1ccc(C(=O)N/N=C/c2cccc([N+](=O)[O-])c2)cc1 , assay Aspergillus niger, MIC value: 16 µg/mL

Tested on Aspergillus niger: O=C(NNC(=O)c1ccc(F)c(C(F)(F)F)c1)c1ccc(-n2cccc2)cc1 . Observed MIC: 8 µg/mL

Record O=C(NNC(=O)c1ccc(-n2cccc2)cc1)c1ccc(Cl)cc1 / Aspergillus niger, MIC recorded as 31.2 µg/mL

Observed MIC on Aspergillus niger, entry Cc1ccc(C)n1-c1ccc(C(=O)NN)cc1 , equals 62.5 µg/mL

The molecule CC(=O)N1N=C(c2ccc(-n3c(C)ccc3C)cc2)OC1c1ccccc1 (configuration not stated) , when measured on Aspergillus niger, yielded MIC of 31.2 µg/mL

Let me check: Cc1ccc(C)n1-c1ccc(-c2nnc(S)o2)cc1 , system Aspergillus niger, measured MIC is 8 µg/mL

Reading of MIC for Brc1ccccc1-c1nnc(-c2ccc(-n3cccc3)cc2)o1 with Aspergillus niger: 16 µg/mL

C/C(=N/NC(=O)c1ccc(-n2c(C)ccc2C)cc1)c1ccc(N)cc1 tested on Aspergillus niger gave MIC: 62.5 µg/mL

# lookup: C/C(=N/NC(=O)c1ccc(-n2c(C)ccc2C)cc1)c1ccccc1 on Aspergillus niger, MIC = 62.5 µg/mL

# MIC measured on Aspergillus niger for item O=C(NNC(=O)c1ccccc1[N+](=O)[O-])c1ccc(-n2cccc2)cc1 = 31.2 µg/mL

Aspergillus niger data for CC(=O)N1N=C(c2ccc(-n3c(C)ccc3C)cc2)OC1c1ccc(Br)cc1 (configuration not stated) ; its MIC: 16 µg/mL

Recorded MIC for Cc1ccc(C)n1-c1ccc(C(=O)N/N=C/c2c(Cl)cccc2Cl)cc1 on Aspergillus niger was 4 µg/mL

Lab entry: Aspergillus niger assay, molecule Cc1ccc(C)n1-c1ccc(C(=O)N/N=C/c2ccccc2Cl)cc1 , MIC = 16 µg/mL

Record CC(=O)N1N=C(c2ccc(-n3c(C)ccc3C)cc2)OC1c1ccccc1[N+](=O)[O-] (configuration not stated) has Aspergillus niger MIC equal to 8 µg/mL

GET /values?item= Brc1ccc(-c2nnc(-c3ccc(-n4cccc4)cc3)o2)cc1 &system= Aspergillus niger returns MIC: 8 µg/mL

Noted MIC for O=[N+]([O-])c1ccccc1-c1nnc(-c2ccc(-n3cccc3)cc2)o1 , tested on Aspergillus niger: 31.2 µg/mL

Item: Cc1ccc(C)n1-c1ccc(C(=O)N/N=C/c2ccc(Br)cc2)cc1 | System: Aspergillus niger | MIC: 16 µg/mL

Measured MIC (Aspergillus niger), entry Cc1ccc(C)n1-c1ccc(-c2n[nH]c(=S)n2N)cc1 : 4 µg/mL

Tested on Aspergillus niger: O=C(NNC(=O)c1ccc([N+](=O)[O-])cc1)c1ccc(-n2cccc2)cc1 . Observed MIC: 31.2 µg/mL

Hey, Aspergillus niger data for OC(Cn1cncn1)(Cn1cncn1)c1ccc(F)cc1F : MIC came out at ≤ 1 µg/mL

Entry CC(=O)N1N=C(c2ccc(-n3c(C)ccc3C)cc2)OC1c1c(Cl)cccc1Cl (configuration not stated) : MIC on Aspergillus niger = 4 µg/mL

Hey, Aspergillus niger data for CC(=O)N1N=C(c2ccc(-n3c(C)ccc3C)cc2)OC1c1ccccc1Cl (configuration not stated) : MIC came out at 16 µg/mL

GET /values?item= O=[N+]([O-])c1cccc(-c2nnc(-c3ccc(-n4cccc4)cc3)o2)c1 &system= Aspergillus niger returns MIC: 31.2 µg/mL

Measured MIC for this entry Cc1ccc(C)n1-c1ccc(C(=O)N/N=C/c2ccc(O)cc2)cc1 on Aspergillus niger: 16 µg/mL

// returns MIC for CC(=O)N1N=C(c2ccc(-n3c(C)ccc3C)cc2)OC1c1cccc([N+](=O)[O-])c1 (configuration not stated) with Aspergillus niger; value = 8 µg/mL

Test item CC(=O)NNC(=O)c1ccc(-n2c(C)ccc2C)cc1 ; Aspergillus niger; reported MIC was 62.5 µg/mL

Fill in: Aspergillus niger MIC for CC(=O)N1N=C(c2ccc(-n3c(C)ccc3C)cc2)OC1c1ccc(N(C)C)cc1 (configuration not stated) = 31.2 µg/mL

###

Please go through the items and note down their pIC50.
system: A549; experiment: Cytotoxicity against Homo sapiens (human) A549 cells after 72 hr by MTT assay; assay type: cell-based; settings: A549, 72 h
# pIC50 = -log10(concentration in molar units)

response.value for Cc1ccc(C)n1-c1ccc(-c2n[nH]c(=S)n2N)cc1 (field: pIC50) = 3.77

Just so you know, measured pIC50 for CC(=O)N1N=C(c2ccc(-n3c(C)ccc3C)cc2)OC1c1ccc(O)cc1 (configuration not stated) came out at 3.72

Input Clc1ccc(-c2nnc(-c3ccc(-n4cccc4)cc3)o2)cc1 . Output pIC50: 3.59

Form field pIC50, entry O=C(NNC(=O)c1ccccc1Br)c1ccc(-n2cccc2)cc1 : 3.70

Per the record, CC(=O)N1N=C(c2ccc(-n3c(C)ccc3C)cc2)OC1c1cccc([N+](=O)[O-])c1 (configuration not stated) has pIC50 of 3.71

Value of pIC50 reported for the compound O=C(NNC(=O)c1ccc(-n2cccc2)cc1)c1ccc(Br)cc1 is 3.70

Lab note: O=C(NNC(=O)c1cccc([N+](=O)[O-])c1)c1ccc(-n2cccc2)cc1 gave pIC50 of 3.69

###

test system: A549; experiment: Cytotoxicity against Homo sapiens (human) A549 cells after 72 hr by MTT assay; type: cell-based; details: A549, 72 h
reportedMetric: IC50 (µM)
Write down the numeric answer in µM and omit the unit.

# Fc1ccc(-c2nnc(-c3ccc(-n4cccc4)cc3)o2)cc1C(F)(F)F with A549: IC50 is 270

Simply: O=[N+]([O-])c1ccc(-c2nnc(-c3ccc(-n4cccc4)cc3)o2)cc1 , A549, IC50 = 258

The compound CC(=O)N1N=C(c2ccc(-n3c(C)ccc3C)cc2)OC1c1ccc(Br)cc1 (configuration not stated) , when measured on A549, yielded IC50 of 195

The recorded IC50 with A549 for Brc1ccccc1-c1nnc(-c2ccc(-n3cccc3)cc2)o1 was 252

Response field IC50 (A549) for item c1ccc(-c2nnc(-c3ccc(-n4cccc4)cc3)o2)cc1 : 256

Sample CC(=O)N1N=C(c2ccc(-n3c(C)ccc3C)cc2)OC1c1ccccc1 (configuration not stated) , system: A549. Its IC50 is 198

// compound O=C(NNC(=O)c1ccc(-n2cccc2)cc1)c1ccc(Cl)cc1 , assay A549, IC50 value: 185

// returns IC50 for Brc1ccc(-c2nnc(-c3ccc(-n4cccc4)cc3)o2)cc1 with A549; value = 264

The observed IC50 for O=C(NNC(=O)c1ccc(F)c(C(F)(F)F)c1)c1ccc(-n2cccc2)cc1 when tested with A549 stands at 200

Log: A549, compound Cc1ccc(C)n1NC(=O)c1ccc(-n2c(C)ccc2C)cc1 , IC50 = 225

Known value: A549 IC50 of the compound CC(=O)N1N=C(c2ccc(-n3c(C)ccc3C)cc2)OC1c1ccc(N(C)C)cc1 (configuration not stated) equals 186

Value sought: IC50, system A549, item O=C(NNC(=O)c1ccc(-n2cccc2)cc1)c1ccccc1 . Result: 215

The recorded IC50 with A549 for O=C(NNC(=O)c1ccc([N+](=O)[O-])cc1)c1ccc(-n2cccc2)cc1 was 198

Record O=[N+]([O-])c1cccc(-c2nnc(-c3ccc(-n4cccc4)cc3)o2)c1 ; system A549; IC50 = 256

Record CC(=O)N1N=C(c2ccc(-n3c(C)ccc3C)cc2)OC1c1c(Cl)cccc1Cl (configuration not stated) ; system A549; IC50 = 224

Value (IC50, A549) for record O=C(NNC(=O)c1ccccc1[N+](=O)[O-])c1ccc(-n2cccc2)cc1 = 205

Item CC(=O)NNC(=O)c1ccc(-n2c(C)ccc2C)cc1 ; assay system A549; IC50 reported as 180

Reported A549 IC50 for item O=[N+]([O-])c1ccccc1-c1nnc(-c2ccc(-n3cccc3)cc2)o1 was 267

# IC50 measured on A549 for item Cc1ccc(C)n1-c1ccc(-c2nnc(S)o2)cc1 = 254

Reported IC50 (A549) for entry CC(=O)N1N=C(c2ccc(-n3c(C)ccc3C)cc2)OC1c1ccccc1[N+](=O)[O-] (configuration not stated) is 182

Query CC(=O)N1N=C(c2ccc(-n3c(C)ccc3C)cc2)OC1c1ccccc1Cl (configuration not stated) on A549; IC50 returned: 206
